- assay-protocol: Pharmacokinetics of crystal form A by oral administration in SD rats
- Assay type: in vivo
- condition-summary: male, rat, plasma, 92.3 mg/kg, suspension in 0.5% methylcellulose, read-out: Time-to-peak, Tmax
value-type: Tmax (h)
Write the value in h as a bare number.

Q) What Tmax value was documented for this compound, "C=C(F)C(=O)N1CCN(c2nc(OC[C@@]34CCCN3C[C@H](F)C4)nc3c2CO[C@H](c2c(F)c(N)cc(C)c2C(F)(F)F)C3)C[C@@H]1CC#N" ?
A) 5.33

---

- assay-protocol: Metabolic stability in hepatocytes, cynomolgus monkeys
- Format: in vitro ADME
- condition-summary: cynomolgus monkey, cryopreserved hepatocytes
value-type: half-life at 1 μM (min)
Hi! Could you send only the number? It should be in min, unit omitted.

Q) Give its half-life at 1 μM value. Item: C=C(F)C(=O)N1CCN(c2nc(OC[C@@]34CCCN3C[C@H](F)C4)nc3c2CO[C@H](c2c(F)c(N)cc(C)c2C(F)(F)F)C3)C[C@@H]1CC#N [Compound of formula (I)]
A) 27

---

- assay-protocol: Protein binding rate in plasma by equilibrium dialysis, CD-1 mice
- Type: in vitro ADME
- condition-summary: CD-1, plasma; value used in the CD mouse PK table; read-out: Plasma protein unbound rate PPB (Unbound %)
value-type: fraction unbound at 4 h, 2 μM
API note: the answer field is a bare number with no unit suffix.

Q) I am curious: what fraction unbound at 4 h, 2 μM value has been reported for "C=C(F)C(=O)N1CCN(c2nc(OC[C@@]34CCCN3C[C@H](F)C4)nc3c2CO[C@H](c2c(F)c(N)cc(C)c2C(F)(F)F)C3)C[C@@H]1CC#N" ?
A) 0.12

---

- assay-protocol: In vitro stability in liver microsomes, SD rats
- Assay type: in vitro ADME
- condition-summary: rat, 0.5 mg/mL, read-out: CLint(hep)
value-type: microsomal CLint at 1 μM (µL/min/mg)
Unit µL/min/mg implied. Number only.

Q) Could you tell me which microsomal CLint at 1 μM is on file for "C=C(F)C(=O)N1CCN(c2nc(OC[C@@]34CCCN3C[C@H](F)C4)nc3c2CO[C@H](c2c(F)c(N)cc(C)c2C(F)(F)F)C3)C[C@@H]1CC#N" ?
A) 60.2

---

- assay-protocol: Pharmacokinetics by oral administration in beagle dogs
- Assay type: in vivo
- condition-summary: male, dog, plasma, 24.5 mg/kg, 0.5% methylcellulose, read-out: Peak concentration, Cmax
value-type: Cmax (nM)
Just the number please, in nM, no unit attached.

Q) Record request: Cmax value, item "C=C(F)C(=O)N1CCN(c2nc(OC[C@@]34CCCN3C[C@H](F)C4)nc3c2CO[C@H](c2c(F)c(N)cc(C)c2C(F)(F)F)C3)C[C@@H]1CC#N"
A) 2440

---

- assay-protocol: Metabolic stability in hepatocytes, beagle dogs
- Type: in vitro ADME
- condition-summary: dog, cryopreserved hepatocytes, read-out: CLint(hep)
value-type: hepatocyte CLint at 1 μM (µL/min/1e6 cells)
Reply numerically in µL/min/1e6 cells, unit not repeated.

Q) What does the record list as hepatocyte CLint at 1 μM for "C=C(F)C(=O)N1CCN(c2nc(OC[C@@]34CCCN3C[C@H](F)C4)nc3c2CO[C@H](c2c(F)c(N)cc(C)c2C(F)(F)F)C3)C[C@@H]1CC#N" ?
A) 7.6

---

- assay-protocol: Pharmacokinetics of crystal form A by oral administration in SD rats
- Assay type: in vivo
- condition-summary: male, rat, plasma, 92.3 mg/kg, suspension in 0.5% methylcellulose, read-out: Area under the plasma concentration-time curve, AUC0-last
value-type: AUC(0-t)
Answer with the value and then the unit.

Q) I am curious: what AUC(0-t) value has been reported for "C=C(F)C(=O)N1CCN(c2nc(OC[C@@]34CCCN3C[C@H](F)C4)nc3c2CO[C@H](c2c(F)c(N)cc(C)c2C(F)(F)F)C3)C[C@@H]1CC#N" ?
A) 11.5 µM·h

---

- assay-protocol: In vitro stability in liver microsomes, beagle dogs
- Type: in vitro ADME
- condition-summary: dog, 0.5 mg/mL, read-out: CLint(hep)
value-type: microsomal CLint at 1 μM

Q) Consider the compound shown here: "C=C(F)C(=O)N1CCN(c2nc(OC[C@@]34CCCN3C[C@H](F)C4)nc3c2CO[C@H](c2c(F)c(N)cc(C)c2C(F)(F)F)C3)C[C@@H]1CC#N" What is its recorded microsomal CLint at 1 μM?
A) < 9.6 µL/min/mg

---

- assay-protocol: Pharmacokinetics by oral administration and intravenous injection in SD rats
- Type: in vivo
- condition-summary: male, rat, plasma, intravenous injection, 2.0 mg/kg, read-out: Area under the plasma concentration-time curve, AUC0-last
value-type: AUC(0-t) (µM·h)
Just the number in µM·h, nothing appended.

Q) Which AUC(0-t) value is on record for C=C(F)C(=O)N1CCN(c2nc(OC[C@@]34CCCN3C[C@H](F)C4)nc3c2CO[C@H](c2c(F)c(N)cc(C)c2C(F)(F)F)C3)C[C@@H]1CC#N [Compound of formula (I)] ?
A) 0.653

---

- assay-protocol: Metabolic stability in hepatocytes, human
- Assay type: in vitro ADME
- condition-summary: cryopreserved hepatocytes, read-out: CLint(liver)
value-type: CLint scaled at 1 μM (mL/min/kg)
# unit: mL/min/kg | format: bare number

Q) Tell me the measured CLint scaled at 1 μM of "C=C(F)C(=O)N1CCN(c2nc(OC[C@@]34CCCN3C[C@H](F)C4)nc3c2CO[C@H](c2c(F)c(N)cc(C)c2C(F)(F)F)C3)C[C@@H]1CC#N" , please.
A) 38.7

---

- assay-protocol: In vitro stability in liver microsomes, cynomolgus monkeys
- Format: in vitro ADME
- condition-summary: cynomolgus monkey, 0.5 mg/mL
- Experimental: Metabolic stabilities of the assay compound in liver microsomes of CD-1 mice, SD rats, beagle dogs, cynomolgus monkeys, and human were assayed, respectively. […] After the pre-incubation, 5 μL of working solutions of the assay sample or the control compound were added to the T60 incubation plate and the NCF60 incubation plate, respectively, and the mixture was mixed well. […] All samples were injected and analyzed by liquid chromatography-tandem mass spectrometry.
value-type: half-life at 1 μM (min)
Just the number please, in min, no unit attached.

Q) Recorded half-life at 1 μM of C=C(F)C(=O)N1CCN(c2nc(OC[C@@]34CCCN3C[C@H](F)C4)nc3c2CO[C@H](c2c(F)c(N)cc(C)c2C(F)(F)F)C3)C[C@@H]1CC#N [Compound of formula (I)] , please.
A) 6.2

---

- assay-protocol: Pharmacokinetics by oral administration and intravenous injection in CD mice
- Type: in vivo
- condition-summary: male, mouse, plasma, oral administration, 10.3 mg/kg, read-out: Bioavailability F (%)
value-type: bioavailability (%)
Kindly provide the numeric value in % only, without the unit symbol.

Q) Fill blank: measured bioavailability of the molecule "C=C(F)C(=O)N1CCN(c2nc(OC[C@@]34CCCN3C[C@H](F)C4)nc3c2CO[C@H](c2c(F)c(N)cc(C)c2C(F)(F)F)C3)C[C@@H]1CC#N" is ____.
A) 21.9

---

- assay-protocol: Pharmacokinetics by oral administration and intravenous injection in SD rats
- Assay type: in vivo
- condition-summary: male, rat, plasma, intravenous injection, 2.0 mg/kg, read-out: Clearance rate, CL
value-type: clearance (mL/min/kg)
Numeric only. Scale: mL/min/kg

Q) May I ask what clearance has been recorded for C=C(F)C(=O)N1CCN(c2nc(OC[C@@]34CCCN3C[C@H](F)C4)nc3c2CO[C@H](c2c(F)c(N)cc(C)c2C(F)(F)F)C3)C[C@@H]1CC#N [Compound of formula (I)] ?
A) 71.5

---

- assay-protocol: Metabolic stability in hepatocytes, SD rats
- Format: in vitro ADME
- condition-summary: rat, cryopreserved hepatocytes
value-type: half-life at 1 μM (min)
Number in min, nothing else.

Q) What value of measured half-life at 1 μM is listed for "C=C(F)C(=O)N1CCN(c2nc(OC[C@@]34CCCN3C[C@H](F)C4)nc3c2CO[C@H](c2c(F)c(N)cc(C)c2C(F)(F)F)C3)C[C@@H]1CC#N" ?
A) 20.6

---

- assay-protocol: In vitro stability in liver microsomes, SD rats
- Type: in vitro ADME
- condition-summary: rat, 0.5 mg/mL
value-type: CLint scaled at 1 μM (mL/min/kg)
Just the number in mL/min/kg, nothing appended.

Q) GET /values?readout=CLint scaled at 1 μM&item= C=C(F)C(=O)N1CCN(c2nc(OC[C@@]34CCCN3C[C@H](F)C4)nc3c2CO[C@H](c2c(F)c(N)cc(C)c2C(F)(F)F)C3)C[C@@H]1CC#N [Compound of formula (I)]
A) 108

---

- assay-protocol: Pharmacokinetics by oral administration and intravenous injection in SD rats
- Type: in vivo
- condition-summary: male, rat, plasma, oral administration, 9.8 mg/kg, read-out: Bioavailability F (%)
value-type: bioavailability
I'd appreciate it if you wrote the number followed by its unit.

Q) Would you mind telling me what bioavailability value was observed for C=C(F)C(=O)N1CCN(c2nc(OC[C@@]34CCCN3C[C@H](F)C4)nc3c2CO[C@H](c2c(F)c(N)cc(C)c2C(F)(F)F)C3)C[C@@H]1CC#N [Compound of formula (I)] ?
A) 30.5%

Ref: patent US20250129102A1
